Test system: L1210 leukemia ip in BDF1 mice, survival T/C
Test: NCI In Vivo Anticancer Drug Screen. Data for tumor model L1210 Leukemia (intraperitoneal) in B6D2F1 (BDF1) mice
Details: endpoint: mean survival time; dose: 200.0 mg/kg/injection; schedule: Q01DX009 (ip); vehicle: saline with Tween-80; higher = longer survival
Inconclusive results and toxic doses are left out.

- compound: "CCOC(=O)c1cnc(SC)nc1Sc1ccc(Cl)cc1"
  T/C: "94 % of control"
- compound: "CSc1ccc(NC(=O)NCCc2ccccc2)cc1"
  T/C: "102 % of control"
- compound: "CCCCCCCCCCCCOc1ccc(C)cc1"
  T/C: "93 % of control"
- compound: "O=c1[nH]c(-c2ccccc2)nc(-c2ccccc2)c1CCO"
  T/C: "86 % of control"
- compound: "O=C(O)c1cc(C(=O)O)cc(S(=O)(=O)F)c1"
  T/C: "88 % of control"
- compound: "COc1cc(C=O)ccc1OC(=O)Nc1ccc(Cl)cc1C(F)(F)F"
  T/C: "96 % of control"
- compound: "O=C(NC(Cc1ccccc1)C(=O)O)OCc1ccccc1 (configuration not stated)"
  T/C: "98 % of control"
- compound: "Cc1cc(-c2nnc(-c3ccc(O)c(C)c3)nn2)ccc1O"
  T/C: "94 % of control"
- compound: "NC(=S)N/N=C/c1ccccc1N"
  T/C: "96 % of control"
- compound: "COc1cc(CCl)c(OC)cc1Cl"
  T/C: "106 % of control"
- compound: "COc1ccc(C(=O)C(=O)c2ccccc2Cl)cc1"
  T/C: "107 % of control"
- compound: "CCOC(=O)C(CC(OCC)OCC)C(=O)OCC"
  T/C: "96 % of control"
- compound: "NC(=S=O)c1ccccc1"
  T/C: "93 % of control"
- compound: "O=C1NC(=O)C2(CCCCCC2)N1"
  T/C: "98 % of control"
- compound: "COc1ccc(C(=O)C(C)Br)c(OCc2ccccc2)c1OC (configuration not stated)"
  T/C: "97 % of control"
- compound: "OCC1OCOC2COCOC12 (configuration not stated)"
  T/C: "98 % of control"
- compound: "COc1ccc(C(CC(=O)c2ccc3c(c2)OCO3)c2c(O)c3ccccc3oc2=O)cc1OC (configuration not stated)"
  T/C: "91 % of control"
- compound: "CC(=O)Nc1ccc(N=CN(C)C)cc1"
  T/C: "101 % of control"
- compound: "CCC(=O)c1ccc(OCC(O)CN2CCN(c3ccccc3Cl)CC2)cc1 (configuration not stated)"
  T/C: "95 % of control"
- compound: "CC(=O)OC(C)(C)Cc1ccccc1"
  T/C: "108 % of control"
- compound: "COCCNC(=O)Nc1cccc2c1CCCC2"
  T/C: "99 % of control"
- compound: "CCCCCCCc1ccc(N=Cc2ccc(OCCC)cc2)cc1"
  T/C: "87 % of control"
- compound: "O=c1ccnc(/C=C/c2ccc(Cl)cc2)[nH]1"
  T/C: "87 % of control"
- compound: "OC(C(c1ccccc1)c1ccccn1)(C(F)(F)F)C(F)(F)F (configuration not stated)"
  T/C: "104 % of control"
- compound: "c1ccc2cc(Sc3ncnc4nc[nH]c34)ccc2c1"
  T/C: "103 % of control"
- compound: "Cc1ccc(S(=O)(=O)Nc2ccc(I)c(Cl)c2Cl)cc1"
  T/C: "104 % of control"
- compound: "NC(N)=Nc1ccc(C(=O)O)cc1"
  T/C: "103 % of control"
